- Experiment description: NCI Yeast Anticancer Drug Screen. Data for the rad50 strain (AID 155);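 also: 0% = growth of vehicle-only cultures of the same strain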
- Assay setup: S. cerevisiae rad50 strain growth inhibition; at 50.0 µM; hits give high values
Compounds without any hit were thinned out: in the full panel of roughly 79,000, 15% have a hit.
Result type: growth inhibition (%)
Give bare numbers, in %.

>  <Molecule>
CCCCC(=O)OC[n+]1ccc2c(C)c3[nH]c4ccc(OC)cc4c3c(C)c2c1

>  <Readout value>
87.9

$$$$
>  <Molecule>
CC(O[Si](C)(C)C(C)(C)C)[C@H](NC(=O)OCC(Cl)(Cl)Cl)C(=O)O (some centres undefined)

>  <Readout value>
-9.6

$$$$

Okay, here is my list. What is growth inhibition for each of these?
1. O=C(O)c1ccc(Cl)cc1[N+](=O)[O-]
2. O=[N+]([O-])CC1=CCCCC1
3. CN1C(=O)C(C)(O)Sc2ccccc21 (centres undefined)
4. CCOC(Cn1ccccc1=N)OCC

[A]
1. 23.4
2. 30.6
3. -1.2
4. 12.8
